test system: E. cloacae SS 07; type: cell-based; conditions: Brain Heart Infusion, estolate and RV11-RV15 previously hydrolized, unit assumed
measurement_kind: MIC

- molecule: "CC[C@H]1OC(=O)[C@H](C)[C@@H](O[C@H]2C[C@@](C)(OC)[C@@H](O)[C@H](C)O2)[C@H](C)[C@@H](O[C@@H]2O[C@H](C)C[C@H](N(C)C)[C@H]2O)[C@](C)(O)C[C@@H](C)C(=O)[C@H](C)[C@@H](O)[C@]1(C)O [RV01, erythromycin alpha-mercaptosuccinate]"
  experimental_value: "> 200 µg/mL"
- molecule: "CCC(=O)O[C@H]1[C@H](O[C@@H]2[C@@H](C)[C@H](O[C@H]3C[C@@](C)(OC)[C@@H](O)[C@H](C)O3)[C@@H](C)C(=O)O[C@H](CC)[C@@](C)(O)[C@H](O)[C@@H](C)C(=O)[C@H](C)C[C@@]2(C)O)O[C@H](C)C[C@@H]1N(C)C [RV11]"
  experimental_value: "> 200 µg/mL"

###

assay: Hematic levels in the healthy volunteer; type: in vivo, healthy volunteers; settings: 3 hours; oral, 500 mg of erythromycin; average; 180 min
Hematic levels in the healthy volunteer for assorted molecules

- molecule: "CCC(=O)O[C@H]1[C@H](O[C@@H]2[C@@H](C)[C@H](O[C@H]3C[C@@](C)(OC)[C@@H](O)[C@H](C)O3)[C@@H](C)C(=O)O[C@H](CC)[C@@](C)(O)[C@H](O)[C@@H](C)C(=O)[C@H](C)C[C@@]2(C)O)O[C@H](C)C[C@@H]1N(C)C [RV11]"
  Hematic levels in the healthy volunteer, µg/mL: 1.48
- molecule: "CCC(=O)O[C@H]1[C@H](O[C@@H]2[C@@H](C)[C@H](O[C@H]3C[C@@](C)(OC)[C@@H](O)[C@H](C)O3)[C@@H](C)C(=O)O[C@H](CC)[C@@](C)(O)[C@H](O)[C@@H](C)C(=O)[C@H](C)C[C@@]2(C)O)O[C@H](C)C[C@@H]1N(C)C [RV13]"
  Hematic levels in the healthy volunteer, µg/mL: 1.67
- molecule: "CCC(=O)O[C@H]1[C@H](O[C@@H]2[C@@H](C)[C@H](O[C@H]3C[C@@](C)(OC)[C@@H](O)[C@H](C)O3)[C@@H](C)C(=O)O[C@H](CC)[C@@](C)(O)[C@H](O)[C@@H](C)C(=O)[C@H](C)C[C@@]2(C)O)O[C@H](C)C[C@@H]1N(C)C [RV15]"
  Hematic levels in the healthy volunteer, µg/mL: 1.72
- molecule: "CCC(=O)O[C@H]1[C@H](O[C@@H]2[C@@H](C)[C@H](O[C@H]3C[C@@](C)(OC)[C@@H](O)[C@H](C)O3)[C@@H](C)C(=O)O[C@H](CC)[C@@](C)(O)[C@H](O)[C@@H](C)C(=O)[C@H](C)C[C@@]2(C)O)O[C@H](C)C[C@@H]1N(C)C [RV14]"
  Hematic levels in the healthy volunteer, µg/mL: 1.60

###

experiment: Hematic levels in the healthy volunteer; type: in vivo, healthy volunteers; conditions: 1 hour; oral, 500 mg of erythromycin; average; 60 min
Some compounds, each annotated with its measured Hematic levels in the healthy volunteer.
measurement_kind: Hematic levels in the healthy volunteer

- compound: "CCC(=O)O[C@H]1[C@H](O[C@@H]2[C@@H](C)[C@H](O[C@H]3C[C@@](C)(OC)[C@@H](O)[C@H](C)O3)[C@@H](C)C(=O)O[C@H](CC)[C@@](C)(O)[C@H](O)[C@@H](C)C(=O)[C@H](C)C[C@@]2(C)O)O[C@H](C)C[C@@H]1N(C)C [erythromycin estolate, reference compound]"
  experimental_value: "0.58 µg/mL"
- compound: "CCC(=O)O[C@H]1[C@H](O[C@@H]2[C@@H](C)[C@H](O[C@H]3C[C@@](C)(OC)[C@@H](O)[C@H](C)O3)[C@@H](C)C(=O)O[C@H](CC)[C@@](C)(O)[C@H](O)[C@@H](C)C(=O)[C@H](C)C[C@@]2(C)O)O[C@H](C)C[C@@H]1N(C)C [RV14]"
  experimental_value: "1.78 µg/mL"
- compound: "CCC(=O)O[C@H]1[C@H](O[C@@H]2[C@@H](C)[C@H](O[C@H]3C[C@@](C)(OC)[C@@H](O)[C@H](C)O3)[C@@H](C)C(=O)O[C@H](CC)[C@@](C)(O)[C@H](O)[C@@H](C)C(=O)[C@H](C)C[C@@]2(C)O)O[C@H](C)C[C@@H]1N(C)C [RV13]"
  experimental_value: "1.67 µg/mL"
- compound: "CCC(=O)O[C@H]1[C@H](O[C@@H]2[C@@H](C)[C@H](O[C@H]3C[C@@](C)(OC)[C@@H](O)[C@H](C)O3)[C@@H](C)C(=O)O[C@H](CC)[C@@](C)(O)[C@H](O)[C@@H](C)C(=O)[C@H](C)C[C@@]2(C)O)O[C@H](C)C[C@@H]1N(C)C [RV15]"
  experimental_value: "1.58 µg/mL"
- compound: "CCC(=O)O[C@H]1[C@H](O[C@@H]2[C@@H](C)[C@H](O[C@H]3C[C@@](C)(OC)[C@@H](O)[C@H](C)O3)[C@@H](C)C(=O)O[C@H](CC)[C@@](C)(O)[C@H](O)[C@@H](C)C(=O)[C@H](C)C[C@@]2(C)O)O[C@H](C)C[C@@H]1N(C)C [RV11]"
  experimental_value: "1.70 µg/mL"

###

conditions: in vivo, po, 100 mg/kg, 3 h
Recorded Hematic levels in the rat for the following molecules
measurement_kind: Hematic levels in the rat (µg/mL)

- molecule: "CCC(=O)O[C@H]1[C@H](O[C@@H]2[C@@H](C)[C@H](O[C@H]3C[C@@](C)(OC)[C@@H](O)[C@H](C)O3)[C@@H](C)C(=O)O[C@H](CC)[C@@](C)(O)[C@H](O)[C@@H](C)C(=O)[C@H](C)C[C@@]2(C)O)O[C@H](C)C[C@@H]1N(C)C [RV13]"
  measurement_kind: "Hematic levels in the rat"
  result_unit: "µg/mL"
  experimental_value: 1.10
- molecule: "CCC(=O)O[C@H]1[C@H](O[C@@H]2[C@@H](C)[C@H](O[C@H]3C[C@@](C)(OC)[C@@H](O)[C@H](C)O3)[C@@H](C)C(=O)O[C@H](CC)[C@@](C)(O)[C@H](O)[C@@H](C)C(=O)[C@H](C)C[C@@]2(C)O)O[C@H](C)C[C@@H]1N(C)C [RV11]"
  measurement_kind: "Hematic levels in the rat"
  result_unit: "µg/mL"
  experimental_value: 1.31
- molecule: "CCC(=O)O[C@H]1[C@H](O[C@@H]2[C@@H](C)[C@H](O[C@H]3C[C@@](C)(OC)[C@@H](O)[C@H](C)O3)[C@@H](C)C(=O)O[C@H](CC)[C@@](C)(O)[C@H](O)[C@@H](C)C(=O)[C@H](C)C[C@@]2(C)O)O[C@H](C)C[C@@H]1N(C)C [RV15]"
  measurement_kind: "Hematic levels in the rat"
  result_unit: "µg/mL"
  experimental_value: 1.19
- molecule: "CCC(=O)O[C@H]1[C@H](O[C@@H]2[C@@H](C)[C@H](O[C@H]3C[C@@](C)(OC)[C@@H](O)[C@H](C)O3)[C@@H](C)C(=O)O[C@H](CC)[C@@](C)(O)[C@H](O)[C@@H](C)C(=O)[C@H](C)C[C@@]2(C)O)O[C@H](C)C[C@@H]1N(C)C [RV14]"
  measurement_kind: "Hematic levels in the rat"
  result_unit: "µg/mL"
  experimental_value: 1.39

###

test: in vivo; conditions: rat, po, 100 mg/kg, Hematic levels in the rat
measurement_kind: concentration at 4 h (ng/mL)

- compound: "CCC(=O)O[C@H]1[C@H](O[C@@H]2[C@@H](C)[C@H](O[C@H]3C[C@@](C)(OC)[C@@H](O)[C@H](C)O3)[C@@H](C)C(=O)O[C@H](CC)[C@@](C)(O)[C@H](O)[C@@H](C)C(=O)[C@H](C)C[C@@]2(C)O)O[C@H](C)C[C@@H]1N(C)C [erythromycin estolate, reference compound]"
  experimental_value: 610

###

experiment: Hematic levels in the rat (absorption by oral route); details: 6 hours, 100 mg/kg as erythromycin, average, 100 mg/kg, 360 min

- molecule: "CC[C@H]1OC(=O)[C@H](C)[C@@H](O[C@H]2C[C@@](C)(OC)[C@@H](O)[C@H](C)O2)[C@H](C)[C@@H](O[C@@H]2O[C@H](C)C[C@H](N(C)C)[C@H]2O)[C@](C)(O)C[C@@H](C)C(=O)[C@H](C)[C@@H](O)[C@]1(C)O [RV01, erythromycin alpha-mercaptosuccinate]"
  Hematic levels in the rat (µg/mL): 0.03
- molecule: "CC[C@H]1OC(=O)[C@H](C)[C@@H](O[C@H]2C[C@@](C)(OC)[C@@H](O)[C@H](C)O2)[C@H](C)[C@@H](O[C@@H]2O[C@H](C)C[C@H](N(C)C)[C@H]2O)[C@](C)(O)C[C@@H](C)C(=O)[C@H](C)[C@@H](O)[C@]1(C)O [erythromycin]"
  Hematic levels in the rat (µg/mL): 0.03
- molecule: "CC[C@H]1OC(=O)[C@H](C)[C@@H](O[C@H]2C[C@@](C)(OC)[C@@H](O)[C@H](C)O2)[C@H](C)[C@@H](O[C@@H]2O[C@H](C)C[C@H](N(C)C)[C@H]2O)[C@](C)(O)C[C@@H](C)C(=O)[C@H](C)[C@@H](O)[C@]1(C)O [RV04, erythromycin-S-carboxymethylcysteinate]"
  Hematic levels in the rat (µg/mL): 0.15
